Recorded IC50 for the following compounds
target: human αVβ1 (Homo sapiens, UniProt P05556+P06756); assay: human αVβ1 HTRF binding assay
Sequence (P06756 31-992 limits assumed): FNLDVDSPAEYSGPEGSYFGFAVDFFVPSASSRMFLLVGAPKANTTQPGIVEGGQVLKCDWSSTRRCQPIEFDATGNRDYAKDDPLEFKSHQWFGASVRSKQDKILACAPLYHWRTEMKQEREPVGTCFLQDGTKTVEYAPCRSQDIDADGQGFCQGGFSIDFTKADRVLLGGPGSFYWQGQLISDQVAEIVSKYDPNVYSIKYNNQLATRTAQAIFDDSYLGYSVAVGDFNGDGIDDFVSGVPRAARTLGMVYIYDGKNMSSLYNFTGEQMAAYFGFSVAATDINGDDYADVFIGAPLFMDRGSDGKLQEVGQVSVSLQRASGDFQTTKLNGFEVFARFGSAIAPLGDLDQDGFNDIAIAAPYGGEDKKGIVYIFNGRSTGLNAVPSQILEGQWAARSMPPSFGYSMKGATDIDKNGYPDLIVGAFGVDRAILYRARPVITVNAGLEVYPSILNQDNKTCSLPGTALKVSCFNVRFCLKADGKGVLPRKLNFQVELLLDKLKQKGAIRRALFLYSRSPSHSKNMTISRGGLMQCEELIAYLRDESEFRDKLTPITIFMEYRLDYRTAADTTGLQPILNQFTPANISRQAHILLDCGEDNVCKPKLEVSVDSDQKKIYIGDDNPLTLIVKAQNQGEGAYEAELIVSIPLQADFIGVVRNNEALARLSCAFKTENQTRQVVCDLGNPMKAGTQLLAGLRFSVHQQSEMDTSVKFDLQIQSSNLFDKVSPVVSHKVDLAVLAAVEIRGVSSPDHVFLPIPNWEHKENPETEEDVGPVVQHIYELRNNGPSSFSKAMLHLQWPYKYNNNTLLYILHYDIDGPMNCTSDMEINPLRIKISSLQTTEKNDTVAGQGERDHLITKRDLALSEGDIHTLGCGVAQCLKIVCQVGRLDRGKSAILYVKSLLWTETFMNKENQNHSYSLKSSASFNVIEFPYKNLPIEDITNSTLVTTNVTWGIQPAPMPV
Sequence (P05556 21-728 limits assumed): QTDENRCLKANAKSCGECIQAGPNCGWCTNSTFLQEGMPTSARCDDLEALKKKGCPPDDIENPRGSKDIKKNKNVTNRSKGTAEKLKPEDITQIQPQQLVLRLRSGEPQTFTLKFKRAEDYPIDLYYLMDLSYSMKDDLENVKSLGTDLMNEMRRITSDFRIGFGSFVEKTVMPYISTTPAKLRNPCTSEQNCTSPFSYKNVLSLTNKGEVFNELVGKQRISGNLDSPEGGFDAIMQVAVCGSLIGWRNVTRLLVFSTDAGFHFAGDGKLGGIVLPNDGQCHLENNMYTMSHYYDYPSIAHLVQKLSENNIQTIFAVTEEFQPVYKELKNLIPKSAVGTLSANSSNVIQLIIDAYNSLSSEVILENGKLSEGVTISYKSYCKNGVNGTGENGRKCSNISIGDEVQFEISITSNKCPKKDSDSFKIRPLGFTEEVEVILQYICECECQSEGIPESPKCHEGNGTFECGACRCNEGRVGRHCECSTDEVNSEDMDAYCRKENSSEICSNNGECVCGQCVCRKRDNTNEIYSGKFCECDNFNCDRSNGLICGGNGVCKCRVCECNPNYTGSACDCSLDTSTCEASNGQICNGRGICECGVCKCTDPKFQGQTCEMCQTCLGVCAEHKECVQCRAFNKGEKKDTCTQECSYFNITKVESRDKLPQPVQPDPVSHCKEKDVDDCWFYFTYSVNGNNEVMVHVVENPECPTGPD
observed-property: IC50 (nM)

compound | observed-property | unit-spec | observed-measurement
O=C(O)CC(c1cnc2ccccc2c1)n1ccc(CCCc2ccc3c(n2)NCCC3)n1 (racemic) [Example 29] | IC50 | nM | 286
COc1ccc(C(CC(=O)O)c2nc(CCCCc3ccc4c(n3)NCCC4)cs2)cc1F (single isomer, unassigned) [Example 37] | IC50 | nM | 160
COc1ccc([C@H](CC(=O)O)N2CCC(CCCc3ccc4c(n3)NCCC4)C2)cn1 (stereo partly shown) [Example 21] | IC50 | nM | 6500
COc1ccc(C(CC(=O)O)c2nc(CCCc3ccc4c(n3)NCCC4)cs2)cn1 (single isomer, unassigned) [Example 15] | IC50 | nM | 55
O=C(O)CC(c1cccc(N2CCOCC2)c1)n1ccc(CCCc2ccc3c(n2)NCCC3)n1 (racemic) [Example 32] | IC50 | nM | 43
COc1ccc(C(CC(=O)O)c2nc(CCCc3ccc4c(n3)NCCC4)cs2)cc1F (single isomer, unassigned) [Example 38] | IC50 | nM | 66
COc1ccc(C(CC(=O)O)n2ccc(CCCc3ccc4c(n3)NCCC4)n2)cn1 (single isomer, unassigned) [Example 3] | IC50 | nM | 65

----------
Recorded IC50 for the following compounds
Target: human αVβ6 (Homo sapiens, UniProt P06756+P18564)
Sequence (P18564 22-707 limits assumed, one chain of several): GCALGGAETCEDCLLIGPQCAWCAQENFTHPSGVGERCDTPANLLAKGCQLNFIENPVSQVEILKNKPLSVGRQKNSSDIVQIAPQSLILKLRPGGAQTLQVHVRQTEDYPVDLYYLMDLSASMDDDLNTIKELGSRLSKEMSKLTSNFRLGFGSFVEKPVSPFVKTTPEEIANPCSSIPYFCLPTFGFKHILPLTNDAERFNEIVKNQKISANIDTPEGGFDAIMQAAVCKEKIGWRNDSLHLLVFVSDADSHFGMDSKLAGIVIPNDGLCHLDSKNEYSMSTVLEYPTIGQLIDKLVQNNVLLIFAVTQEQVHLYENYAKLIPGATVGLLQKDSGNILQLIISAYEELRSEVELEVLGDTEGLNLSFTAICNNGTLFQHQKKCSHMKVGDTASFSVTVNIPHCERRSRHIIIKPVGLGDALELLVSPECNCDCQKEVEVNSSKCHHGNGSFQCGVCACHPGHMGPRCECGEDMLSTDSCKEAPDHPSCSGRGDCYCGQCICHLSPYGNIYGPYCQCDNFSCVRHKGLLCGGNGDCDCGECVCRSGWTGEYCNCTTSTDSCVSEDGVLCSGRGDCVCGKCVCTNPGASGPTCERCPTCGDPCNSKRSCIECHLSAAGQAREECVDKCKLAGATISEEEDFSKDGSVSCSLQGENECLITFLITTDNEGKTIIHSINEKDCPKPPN
Test: human αVβ6 HTRF binding assay
Details: recombinant human αVβ6 integrin, FITC-conjugated fibronectin
Description: All binding assays used the HTRF (homogeneous time resolved fluorescence) technology from Cisbio International, therefore all assays are described as HTRF binding assays. The assay results for the Examples are listed above together with the characterization data. The HTRF binding assays are established for the following integrins: human αVβ6, human αVβ1, human αVβ3, human αVβ5, and human αVβ8. […]
Where a name gives a salt, the structure may show the parent alone.
observed-property: IC50 (nM)

compound | system | unit-spec | observed-measurement
COc1ccc(C(CC(=O)O)c2cnn(CCCCc3ccc4c(n3)NCCC4)c2)cn1 (racemic) [Example 11] | human αVβ6 (Homo sapiens, UniProt P06756+P18564) | nM | 100
COc1ncc([C@@H](CC(=O)O)n2ccc(CCCc3ccc4c(n3)NCCC4)n2)cn1 [Example 83] | human αVβ6 (Homo sapiens, UniProt P06756+P18564) | nM | 310
COc1ncc(C(CC(=O)O)n2ccc(CCCc3ccc4c(n3)NCCCC4)n2)cn1 (racemic) [Example 103] | human αVβ6 (Homo sapiens, UniProt P06756+P18564) | nM | 30
COc1cncc(C(CC(=O)O)n2ccc(CCCc3ccc4c(n3)NCCC4)n2)c1 (single isomer, unassigned) [Example 65] | human αVβ6 (Homo sapiens, UniProt P06756+P18564) | nM | 410
O=C(O)CC(c1cncc(N2CCOCC2)c1)n1nccc1CCCc1ccc2c(n1)NCCC2 (single isomer, unassigned) [Example 95] | human αVβ6 (Homo sapiens, UniProt P06756+P18564) | nM | 230
COc1ccc(C(CC(=O)O)c2nc(CCCc3ccc4c(n3)NCCC4)cs2)cc1OC (single isomer, unassigned) [Example 142] | human αVβ6 (Homo sapiens, UniProt P06756+P18564) | nM | 37
Cc1ncc([C@@H](CC(=O)O)n2cc(F)c(CCCc3ccc4c(n3)NCCC4)n2)cn1 [Example 114] | human αVβ6 (Homo sapiens, UniProt P06756+P18564) | nM | 4800
O=C(O)CCCNc1cc(C(CC(=O)O)n2nccc2CCCc2ccc3c(n2)NCCC3)ccn1 (racemic) [Example 79] | human αVβ6 (Homo sapiens, UniProt P06756+P18564) | nM | 300
O=C(O)CC(c1cnc2nccnc2c1)n1ccc(CCCc2ccc3c(n2)NCCC3)n1 (racemic) [Example 33] | human αVβ6 (Homo sapiens, UniProt P06756+P18564) | nM | 2800
COc1ccc(C(CC(=O)O)c2ncc(CCCCc3ccc4c(n3)NCCC4)n2C)cc1F (single isomer, unassigned) [Example 166] | human αVβ6 (Homo sapiens, UniProt P06756+P18564) | nM | 280
O=C(O)C[C@@H](c1ccc(OCc2ccccc2)nc1)n1ccc(CCCc2ccc3c(n2)NCCC3)n1 [Example 110] | human αVβ6 (Homo sapiens, UniProt P06756+P18564) | nM | 9.3
COc1ccc(C(CC(=O)O)n2ccc(CCCc3ccc4c(n3)NCCCC4)n2)cn1 (racemic) [Example 100] | human αVβ6 (Homo sapiens, UniProt P06756+P18564) | nM | 6.4
COc1ccc(C(CC(=O)O)c2ncc(CCCCc3ccc4c(n3)NCCC4)n2C)cn1 (single isomer, unassigned) [Example 165] | human αVβ6 (Homo sapiens, UniProt P06756+P18564) | nM | 27
COc1ccc(C(CC(=O)O)n2ccc(OCCCc3ccc4c(n3)NCCC4)n2)cn1 (racemic) [Example 48] | human αVβ6 (Homo sapiens, UniProt P06756+P18564) | nM | 29
COc1ccc([C@H](CC(=O)O)c2cnn(CCCc3ccc4c(n3)NCCC4)c2)cn1 [Example 8] | human αVβ6 (Homo sapiens, UniProt P06756+P18564) | nM | 64
CCOc1ncc(C(CC(=O)O)n2ccc(CCCc3ccc4c(n3)NCCC4)n2)cn1 (racemic) [Example 27] | human αVβ6 (Homo sapiens, UniProt P06756+P18564) | nM | 9.4
O=C(O)CC(c1cnc2ccccc2n1)n1ccc(CCCc2ccc3c(n2)NCCC3)n1 (racemic) [Example 28] | human αVβ6 (Homo sapiens, UniProt P06756+P18564) | nM | 5500
COc1ncc(C(CC(=O)O)n2ncc(CCCc3ccc4c(n3)NCCC4)n2)cn1 (single isomer, unassigned) [Example 176] | human αVβ6 (Homo sapiens, UniProt P06756+P18564) | nM | 43
COc1ccc(C(CC(=O)O)c2nc(CCCc3ccc4c(n3)NCCC4)cs2)cc1F (single isomer, unassigned) [Example 39] | human αVβ6 (Homo sapiens, UniProt P06756+P18564) | nM | 23
COc1ncc(C(CC(=O)O)n2ccc(CCCc3ccc4c(n3)NCCC4)n2)cn1 (racemic) [Example 34] | human αVβ6 (Homo sapiens, UniProt P06756+P18564) | nM | 10
O=C(O)C[C@@H](c1ccc(O)nc1)n1ccc(CCCc2ccc3c(n2)NCCC3)n1 [Example 12] | human αVβ6 (Homo sapiens, UniProt P06756+P18564) | nM | 31
Cc1cncc(C(CC(=O)O)n2ccc(CCCc3ccc4c(n3)NCCC4)n2)c1 (single isomer, unassigned) [Example 70] | human αVβ6 (Homo sapiens, UniProt P06756+P18564) | nM | 4900
CCCCOC(=O)NC(Cc1cnn(CCc2ccc3c(n2)NCCC3)c1)C(=O)O (racemic) [Example 23] | human αVβ6 (Homo sapiens, UniProt P06756+P18564) | nM | 1020
Cn1cc([C@H](CC(=O)O)n2ccc(CCCc3ccc4c(n3)NCCC4)n2)ccc1=O [Example 45, ditrifluoroacetic acid salt] | human αVβ6 (Homo sapiens, UniProt P06756+P18564) | nM | 1.6
O=C(O)CC(c1cnc(N2CCC2)nc1)n1nccc1CCCc1ccc2c(n1)NCCC2 (racemic) [Example 53] | human αVβ6 (Homo sapiens, UniProt P06756+P18564) | nM | 140
COc1ccc(C(CC(=O)O)n2ccc(-c3cccc(-c4ccc5c(n4)NCCC5)c3)n2)cn1 (racemic) [Example 46] | human αVβ6 (Homo sapiens, UniProt P06756+P18564) | nM | 28
COc1ccc(C(CC(=O)O)c2nc(CCCCc3ccc4c(n3)NCCC4)cs2)cn1 (single isomer, unassigned) [Example 13] | human αVβ6 (Homo sapiens, UniProt P06756+P18564) | nM | 77
CN(C)C(=O)c1ccc(C(CC(=O)O)c2nc(CCCCc3ccc4c(n3)NCCC4)cs2)cc1 (single isomer, unassigned) [Example 127] | human αVβ6 (Homo sapiens, UniProt P06756+P18564) | nM | 60
Cc1ncc(C(CC(=O)O)n2ccc(CCCc3ccc4c(n3)NCCCC4)n2)cn1 (racemic) [Example 96] | human αVβ6 (Homo sapiens, UniProt P06756+P18564) | nM | 17

----------
Recorded pIC50 for the following molecules
target: human αVβ5 (Homo sapiens, UniProt P06756+P18084); assay: human αVβ5 HTRF binding assay
Sequence (P06756 31-992 limits assumed): as the sequence (P06756 31-992 limits assumed) above
Sequence (P18084 24-719 limits assumed): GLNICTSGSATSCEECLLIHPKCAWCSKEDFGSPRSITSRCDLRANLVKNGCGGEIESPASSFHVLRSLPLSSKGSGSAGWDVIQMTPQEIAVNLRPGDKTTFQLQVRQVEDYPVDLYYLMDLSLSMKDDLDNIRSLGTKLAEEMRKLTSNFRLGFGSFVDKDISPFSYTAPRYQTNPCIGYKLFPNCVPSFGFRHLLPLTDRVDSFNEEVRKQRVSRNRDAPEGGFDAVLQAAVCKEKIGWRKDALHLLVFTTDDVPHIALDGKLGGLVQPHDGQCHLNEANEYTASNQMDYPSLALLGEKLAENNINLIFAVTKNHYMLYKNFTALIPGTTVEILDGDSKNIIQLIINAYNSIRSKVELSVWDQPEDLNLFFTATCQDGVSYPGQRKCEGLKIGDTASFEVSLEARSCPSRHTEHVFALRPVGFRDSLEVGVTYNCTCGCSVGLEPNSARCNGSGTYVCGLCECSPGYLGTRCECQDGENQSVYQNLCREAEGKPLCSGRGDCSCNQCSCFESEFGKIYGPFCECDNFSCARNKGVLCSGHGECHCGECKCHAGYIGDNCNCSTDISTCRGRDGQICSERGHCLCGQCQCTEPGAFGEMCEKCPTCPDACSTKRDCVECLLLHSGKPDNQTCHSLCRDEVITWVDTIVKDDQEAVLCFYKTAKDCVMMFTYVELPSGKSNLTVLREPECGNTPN
pIC50: −log10 of the molar value.

molecule | pIC50
COc1ccc([C@H](CC(=O)O)N2CCC(CCCc3ccc4c(n3)NCCC4)C2)cn1 (stereo partly shown) | 8.00
COc1ccc(C(CC(=O)O)n2ccc(CCCc3ccc4c(n3)NCCC4)n2)cn1 (single isomer, unassigned) [Example 3] | 7.96
COc1ccc(C(CC(=O)O)n2ccc(-c3cccc(-c4ccc5c(n4)NCCC5)c3)n2)cn1 (racemic) | 7.96
COc1ccc(C(CC(=O)O)n2ccc(CCCc3ccc4c(n3)NCCC4)n2)cn1 (racemic) [Example 2] | 9.47
